# PROCEDURE DETAILS: RP, Waters ACQUITY UPLC BEH C18, 100 × 2.1 mm, 1.7 µm, 0.3 mL/min, estimated dead time 0.73 min; A: water + 0.1% formic acid, pH 3; B: methanol + 0.1% formic acid, pH 3; gradient (min/%B) 0/10 14/90 16/90 18/10
# PARTICULARS: stereoisomer not certain
Measured LC retention time determines class: low bin: < 7 min; mid bin: ≥ 7 min and < 10 min; high bin: ≥ 10 min

Examples from the recorded data:
INSERT INTO results (molecule, label) VALUES
  ('CC#Cc1cc(C)nc(Nc2ccccc2)n1', 'high bin'),
  ('CNC(=O)Oc1cccc2c1OC(C)(C)C2', 'mid bin'),
  ('CC12CCC(O)CC1=CCC1C2CCC2(C)C(O)CCC12 (stereo unspecified)', 'high bin'),
  ('CCC(C)C1OC2(CCC1C)CC1CC(CC=C(C)C(OC3CC(OC)C(OC4CC(OC)C(O)C(C)O4)C(C)O3)C(C)C=CC=C3COC4C(O)C(C)=CC(C(=O)O1)C34O)O2 (stereo unspecified)', 'high bin'),
  ('CCCCOC(=O)c1ccccc1C(=O)OCc1ccccc1 [Benzyl butyl phthalate]', 'high bin'),
  ('CNc1cnn(-c2cccc(C(F)(F)F)c2)c(=O)c1Cl', 'mid bin'),
  ('CCNc1nc(NCC)[nH]c(=O)n1 [2-hydroxysimazine]', 'low bin'),
  ('CCNc1nc(Cl)nc(NC(C)C)n1', 'mid bin'),
  ('CCNc1nc(N)nc(Cl)n1', 'low bin'),
  ('CC1(C)CCC(=Cc2ccc(Cl)cc2)C1(O)Cn1cncn1 (stereo unspecified)', 'high bin');

Kindly identify the class of CCn1cc(C(=O)O)c(=O)c2cc(F)c(N3CCNCC3)cc21 .
low bin

Kindly identify the class of CC(C)OC(=O)C(C(=O)OC(C)C)=C1SCCS1 .
high bin

Kindly identify the class of CCOP(=S)(OCC)Oc1cc(C)nc(C(C)C)n1 .
high bin

Data provenance is the RepoRT retention time repository (doi:10.1016/j.scitotenv.2015.08.078).
